Reference source for all entries: patent US8501816B2

# Assay name: Pharmacokinetics of memantine with sodium hydroxide, menthol and NH4Cl in male beagle dogs (Example 3)
# Type: in vivo, beagle dog
# Conditions used: male, beagle, dog, plasma, po, 0.4 mg/kg, MMT 0.4 mg/kg, 3.3 mg/ml sodium hydroxide + 5 mg/ml menthol + 20 mg/kg NH4Cl
Endpoint label: AUC(0-t) (ng·h/mL)
// units = ng·h/mL; emit number, no label

stdin: # get_value(readout='AUC(0-t)', item= CC12CC3CC(C)(C1)CC(N)(C3)C2 [Memantine] )
stdout: 134

###

# Assay name: Pharmacokinetics of memantine with sodium hydroxide, menthol and NH4Cl in male beagle dogs (Example 3)
# Type: in vivo, beagle dog
# Conditions used: male, beagle, dog, plasma, po, 0.4 mg/kg, MMT 0.4 mg/kg, 3.3 mg/ml sodium hydroxide + 5 mg/ml menthol
Endpoint label: Tmax
Enter the number, and then the unit.

stdin: # get_value(readout='Tmax', item= CC12CC3CC(C)(C1)CC(N)(C3)C2 [Memantine] )
stdout: 12 min
